Listing: Activity of selected compounds
Species: Gallus gallus
Experiment: Activation of actin-stimulated chicken gizzard smooth muscle myosin S1 fragment ATPase activity at 100 uM after 10 mins by spectrophotometric analysis relative to control
metric name: Activity (%)

c1ccc(CCCc2nc(-c3ccccc3)no2)cc1 :: -2.4
c1ccc(CCCc2nnc(-c3ccccc3)o2)cc1 :: -3.7
c1ccc(CCCc2nnc(CCC3CCCCC3)o2)cc1 :: 4.5

====

Listing of recorded EC50 by entry.
Test: Activation of actin-stimulated bovine cardiac myosin S1 fragment ATPase activity in sarcomere after 10 mins by spectrophotometric analysis
Set-up: species or system Bos taurus
metric name: EC50 (µM)

COC(=O)N1CCN(Cc2cccc(NC(=O)Nc3ccc(C)nc3)c2F)CC1 :: 3.35
c1ccc(CCCc2nc(-c3ccccc3)no2)cc1 :: 3.18
c1ccc(CCCc2nnc(CCC3CCCCC3)o2)cc1 :: 3.48
c1ccc(CCCc2nnc(Cc3ccccc3)o2)cc1 :: 3.06
c1ccc(CCCc2nnc(CCc3ccccc3)o2)cc1 :: 4.5
